# experimental-target: T1, human TG2 (Homo sapiens, UniProt P21980)
# T1 sequence (P21980 1-687): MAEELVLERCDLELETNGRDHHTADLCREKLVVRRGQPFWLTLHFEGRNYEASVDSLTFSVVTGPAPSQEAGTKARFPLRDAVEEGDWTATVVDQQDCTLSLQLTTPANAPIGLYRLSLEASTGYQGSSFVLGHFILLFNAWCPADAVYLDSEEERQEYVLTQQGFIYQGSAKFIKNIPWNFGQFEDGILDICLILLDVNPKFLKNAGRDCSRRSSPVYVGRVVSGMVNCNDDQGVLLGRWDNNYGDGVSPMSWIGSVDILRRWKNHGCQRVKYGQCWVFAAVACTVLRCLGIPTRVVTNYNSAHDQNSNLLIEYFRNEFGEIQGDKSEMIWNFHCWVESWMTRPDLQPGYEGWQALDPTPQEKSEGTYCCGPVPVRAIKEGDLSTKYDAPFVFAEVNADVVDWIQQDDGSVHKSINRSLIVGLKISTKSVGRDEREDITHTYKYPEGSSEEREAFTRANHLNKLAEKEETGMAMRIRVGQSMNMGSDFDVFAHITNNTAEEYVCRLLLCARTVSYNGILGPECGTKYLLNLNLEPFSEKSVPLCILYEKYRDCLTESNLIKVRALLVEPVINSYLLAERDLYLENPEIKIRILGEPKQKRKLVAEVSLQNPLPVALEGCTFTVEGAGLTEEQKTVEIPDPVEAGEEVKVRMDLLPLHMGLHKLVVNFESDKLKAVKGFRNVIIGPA
# test-summary: Biacore (SPR) affinity, human TG2
# Assay type: binding
# Set-up: purchased Zedira GmbH T002
# test-context: +Ca^2+ (1 mM CaCl2 running buffer; includes rows without a Ca mark)
Known koff of a selection of molecules

Name the reported koff value associated with the molecule hAB005: humanised AB1 antibody; heavy chain version RHA with light chain version RKJ (antibody, V domains shown) VH: EVQLLESGGGLVQPGGSLRLSCAASGFTFSSSAMSWVRQAPGKGLEWVSTISVGGGKTYYPDSVKGRFTISRDNSKNTLYLQMNSLRAEDTAVYYCAKLISLYWGQGTLVTVSS VL: DIQMTQSPSSLSASVGDRVTITCKASQDINSYLTWFQQKPGKAPKSLIYRTNRLFDGVPSRFSGSGSGTDFFLTISSLQPEDFATYYCLQYDDFPYTFGQGTKVEIK
<10^−5 s^−1

Report koff for cDC001: chimeric DC1 antibody: murine variable regions, human IgG1 and human kappa (antibody, V domains shown) VH: EVQLVESGGGLVKPGGSLKLSCAASGFTLSTHAMSWVRQTPEKRLEWVATISSGGRSTYYPDSVKGRFTISRDNVKNTLYLQLSSLRSEDTAVYFCARLISTYWGQGTTLTVSS VL: DITMTQSPSSIYASLGERVTITCKASQDINSYLTWFQQKPGKSPKILIYLVNRLVDGVPSRFSGSGSGQDYALTISSLEYEDMGIYYCLQYDDFPYTFGGGTKLEIK please.
<10^−5 s^−1

New cases:
// query koff value for entry hAB004: humanised AB1 antibody; heavy chain version RHA with light chain version RKE (antibody, V domains shown) VH: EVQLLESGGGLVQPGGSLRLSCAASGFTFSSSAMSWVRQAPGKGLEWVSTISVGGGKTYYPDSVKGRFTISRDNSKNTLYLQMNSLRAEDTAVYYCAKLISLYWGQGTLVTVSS VL: EIVLTQSPSSLSASVGDRVTITCKASQDINSYLTWYQQKPGKAPKLLIYRTNRLFDGVPSRFSGSGSGTDFFFTISSLQPEDFGTYYCLQYDDFPYTFGGGTKLEIK
2.4e-05 s⁻¹

Returns the measured koff for the input molecule. Input: hBB001BB: humanised BB7 antibody (heavy chain hBB001HB, light chain hBB001KB by name) (antibody, V domains shown) VH: EVQLLESGGGLVQPGGSLRLSCAASGIIFSSSAMSWVRQAPGKGLEWVATISSGGRSTYYPDSVKGRFTVSRDSSKNTLYLQMNSLRAEDTAVYYCAKLISPYWGQGTLVTVSS VL: DIKMTQSPSSLSASVGDRVTITCKASQDINSYLTWFQQKPGKAPKTLIYLTNRLMDGVPSRFSGSGSGQEFLLTISSLQPEDFATYYCLQYVDFPYTFGQGTKVEIK
<10^−5 s^−1
